# measured-on: T1, EagT6 Q58A (Pseudomonas aeruginosa, UniProt Q9I738, Q58A)
# T1 construct: also called EagT6-TMD Q58A (in complex)
# T1 sequence: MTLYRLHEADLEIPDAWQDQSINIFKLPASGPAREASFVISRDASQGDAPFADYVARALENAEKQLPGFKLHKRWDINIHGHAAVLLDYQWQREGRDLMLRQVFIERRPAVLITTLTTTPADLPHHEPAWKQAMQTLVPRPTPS
# test-name: GdmCl denaturation followed by steady-state tryptophan fluorescence (unfolding free energy of the co-purified complex against the apo chaperone); 1 μM protein dimer, 25 mM Tris pH 7.0, GdmCl series, room temperature, 1 h equilibration; KTMD calculated by Eq. (7) from ΔG° of unfolding extrapolated to 0 M denaturant
# condition-label: both partners purified
pKd: −log10 of the molar value.
measure-name: pKd

binder	result
Tse6(1–61) (domain or fragment, not shown: His6, C-terminal, kept) MDAQAAARLGDEIAHGFGVAAMVAGAVAGALIGAAVVAATAATGGLAAVILAGSIAAGGLS	~10.52
